assay-text: recombinant UMI read abundance after kanamycin selection (control-corrected) (log10(CPM+1)); higher = more efficient recombination; extreme values may be limits of the assay; sequences stand for … in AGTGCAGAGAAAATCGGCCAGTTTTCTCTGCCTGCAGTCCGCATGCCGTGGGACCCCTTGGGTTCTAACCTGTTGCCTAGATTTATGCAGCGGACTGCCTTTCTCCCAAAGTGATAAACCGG…AGGTTGGTTTCACT; site = the 11-nt donor
The entries below are paired with their reported recombinant UMI read abundance (log10).

TAACAGGCATGGACCGGTTTTCCCGGTAATCCGTATTTGTT (site TAACAGGCTAA) : 1.1
AACGAAACATGGACCGGTTTTCCCGGTAATCCGTATTTGCC (site AACGAAACTGG) : 2.4

Consider the additional sequence presented here.
Prompt line: # return recorded recombinant UMI read abundance (log10) for input CACTCCTCATGGACCGGTTTTCCCGGTAATCCGTATTTGCG (site CACTCCTCTAG)
Response line: 1.11

###

The entries below are paired with their reported recombinant UMI read abundance (log10).
assay-text: recombinant UMI read abundance after kanamycin selection (control-corrected) (log10(CPM+1)); higher = more efficient recombination; extreme values may be limits of the assay; sequences stand for … in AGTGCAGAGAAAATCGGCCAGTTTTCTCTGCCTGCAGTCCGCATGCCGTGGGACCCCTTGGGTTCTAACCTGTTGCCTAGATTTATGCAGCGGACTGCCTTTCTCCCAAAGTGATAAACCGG…AGGTTGGTTTCACT; site = the 11-nt donor
# respond with the number and nothing more

Some sequences with recorded recombinant UMI read abundance (log10):
CGATCACCATGGACCGGTTTTCCCGGTAATCCGTATTTGAT (site CGATCACCTAT) : 0.00371
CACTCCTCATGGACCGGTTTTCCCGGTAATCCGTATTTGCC (site CACTCCTCTCG) : 0.00305
GGGGAGTCATGGACCGGTTTTCCCGGTAATCCGTATTTGCC (site GGGGAGTCTGG) : 1.78
CTGTTCGCATGGACCGGTTTTCCCGGTAATCCGTATTTGTA (site CTGTTCGCTTA) : 2.09
ATAAAGGCATGGACCGGTTTTCCCGGTAATCCGTATTTGCT (site ACAAAGGCTAG) : 1.63

Prompt line: # return recorded recombinant UMI read abundance (log10) for input CATCAGTCATGGACCGGTTTTCCCGGTAATCCGTATTTGGT (site CATCAGTCTAC)
Response line: 2.17

###

assay-text: recombinant UMI read abundance after kanamycin selection (control-corrected) (log10(CPM+1)); higher = more efficient recombination; extreme values may be limits of the assay; sequences stand for … in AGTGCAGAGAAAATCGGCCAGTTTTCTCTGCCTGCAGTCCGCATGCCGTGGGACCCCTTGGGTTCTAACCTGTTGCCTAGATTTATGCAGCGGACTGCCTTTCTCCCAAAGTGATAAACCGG…AGGTTGGTTTCACT; site = the 11-nt donor
// label = label 1 if recombinant UMI read abundance (log10) is not less than 1, otherwise label 0

Please review the entries below; each comes with its answer.
ATAAAGGCATGGACCGGTTTTCCCGGTAATCCGTATTTGCT (site ATAAAGGCTAG) : label 1
TTTGCGGCATGGACCGGTTTTCCCGGTAATCCGTATTTGCA (site TTTGCGGCTCG) : label 0
CACGGCTCATGGACCGGTTTTCCCGGTAATCCGTATTTGTT (site CACGGCACTAA) : label 0
TAGTCTTCATGGACCGGTTTTCCCGGTAATCCGTATTTGGT (site TAGGCTTCTAC) : label 0
CCCCTCACATGGACCGGTTTTCCCGGTAATCCGTATTTGTA (site CCCCTCACTTA) : label 1

Prompt line: Hi team, for CATTGGACATGGACCGGTTTTCCCGGTAATCCGTATTTGAC (site GATTGGACTGT) , is the recorded recombinant UMI read abundance (log10) at or above 1?
Response line: label 0

Prompt line: Hi team, for GAGTGGACATGGACCGGTTTTCCCGGTAATCCGTATTTGAC (site GAGTGGACTGT) , is the recorded recombinant UMI read abundance (log10) at or above 1?
Response line: label 1

###

assay-text: recombinant UMI read abundance after kanamycin selection (control-corrected) (log10(CPM+1)); higher = more efficient recombination; extreme values may be limits of the assay; sequences stand for … in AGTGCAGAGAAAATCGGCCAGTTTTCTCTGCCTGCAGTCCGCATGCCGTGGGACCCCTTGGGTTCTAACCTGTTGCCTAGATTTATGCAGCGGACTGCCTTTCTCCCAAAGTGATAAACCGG…AGGTTGGTTTCACT; site = the 11-nt donor
readout-label: recombinant UMI read abundance (log10)
# respond with the number and nothing more

Some sequences with recorded recombinant UMI read abundance (log10):
CGAACCACATGGACCGGTTTTCCCGGTAATCCGTATTTGTG (site CGAACCACTCA) : 0.523
TCAAAGCCATGGACCGGTTTTCCCGGTAATCCGTATTTGAT (site TCAAAGCCTAT) : 0.324
CGTAATCCATGGACCGGTTTTCCCGGTAATCCGTATTTGTT (site CGAAATCCTAA) : 0.00285
AGTACTACATGGACCGGTTTTCCCGGTAATCCGTATTTGAC (site AGCACTACTGT) : 0

Consider the additional sequence presented here.
Prompt line: # return recorded recombinant UMI read abundance (log10) for input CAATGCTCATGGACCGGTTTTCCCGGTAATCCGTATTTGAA (site CAATGCCCTTT)
Response line: 1.25

###

The entries below are paired with their reported recombinant barcode read abundance (log10).
assay-text: recombinant barcode read abundance after kanamycin selection (control-corrected) (log10(CPM+1)); higher = more efficient recombination; sequences stand for … in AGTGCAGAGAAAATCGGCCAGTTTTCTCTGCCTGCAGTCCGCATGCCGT…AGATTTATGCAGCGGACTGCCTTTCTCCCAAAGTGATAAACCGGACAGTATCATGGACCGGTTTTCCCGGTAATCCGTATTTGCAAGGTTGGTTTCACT; site = the 11-nt target

Some sequences with recorded recombinant barcode read abundance (log10):
TAGCACCCTTGGGTTCTAACCTGTTGCCC (site TAGCACCCTGG) : 1.69
TAGGCGCCTTGGGTTCTAACCTGTTGCTT (site TAGGCGCCTAC) : 0.263
ACACGGACTTGGGTTCTAACCTGTTGCTA (site GTGGTACCTAT) : 0.0282
GTTACACCTTGGGTTCTAACCTGTTGCCT (site GTTTCACCTAG) : 0.187
CGGACGTCTTGGGTTCTAACCTGTTGCTG (site CGGACGTCTCA) : 1.69
CTCTTCACTTGGGTTCTAACCTGTTGCCG (site CTCTTCGCTAG) : 0.0289
CTCTAGTCTTGGGTTCTAACCTGTTGCTT (site CTCTAGTCTAT) : 0.755
AAGCGTCCTTGGGTTCTAACCTGTTGCCT (site AAGCGTGCTAG) : 0.583
GTCGATCCTTGGGTTCTAACCTGTTGCCT (site GACGATCCTAG) : 0.69
GTCGTCCCTTGGGTTCTAACCTGTTGCCA (site GTCGTCCCTTG) : 0.231

Prompt line: # return recorded recombinant barcode read abundance (log10) for input GCCCTCCCTTGGGTTCTAACCTGTTGCCT (site GCCCTCCCTAG)
Response line: 1.77

Prompt line: # return recorded recombinant barcode read abundance (log10) for input ACCAAGTCTTGGGTTCTAACCTGTTGCGT (site ACCAAGTCTAC)
Response line: 1.98

Prompt line: # return recorded recombinant barcode read abundance (log10) for input CATCATTCTTGGGTTCTAACCTGTTGCCT (site CATTATTCTAG)
Response line: 0

Prompt line: # return recorded recombinant barcode read abundance (log10) for input TTACGGGCTTGGGTTCTAACCTGTTGCGG (site TTACGTGCTCC)
Response line: 0.189

Prompt line: # return recorded recombinant barcode read abundance (log10) for input AGAACGTCTTGGGTTCTAACCTGTTGCCT (site AGAACGTCTAG)
Response line: 1.09

Prompt line: # return recorded recombinant barcode read abundance (log10) for input GAGCGAGCTTGGGTTCTAACCTGTTGCGG (site GAGCGAGCTCG)
Response line: 0.196

###

assay-text: recombinant UMI read abundance after kanamycin selection (control-corrected) (log10(CPM+1)); higher = more efficient recombination; extreme values may be limits of the assay; sequences stand for … in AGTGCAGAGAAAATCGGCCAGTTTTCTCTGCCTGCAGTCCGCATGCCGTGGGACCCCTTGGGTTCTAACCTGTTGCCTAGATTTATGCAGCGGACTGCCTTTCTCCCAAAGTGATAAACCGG…AGGTTGGTTTCACT; site = the 11-nt donor
// label = 1.0 if recombinant UMI read abundance (log10) is not less than 0.8, otherwise 0.0

Please review the entries below; each comes with its answer.
GGTACGCCATGGACCGGTTTTCCCGGTAATCCGTATTTGTT (site GGTACGCCTAA) : 0.0
TTATTACCATGGACCGGTTTTCCCGGTAATCCGTATTTGGG (site TTATTACCTCC) : 0.0
ATGAAGACATGGACCGGTTTTCCCGGTAATCCGTATTTGCA (site AAGAAGACTTG) : 1.0
TTACAAACATGGACCGGTTTTCCCGGTAATCCGTATTTGAG (site TTACAAACTCT) : 1.0
CCTAATACATGGACCGGTTTTCCCGGTAATCCGTATTTGTC (site CCTAATACTGC) : 0.0

Prompt line: Hi team, for AGAAGCACATGGACCGGTTTTCCCGGTAATCCGTATTTGTC (site AGAAGCACTGA) , is the recorded recombinant UMI read abundance (log10) at or above 0.8?
Response line: 1.0

Prompt line: Hi team, for TCATATTCATGGACCGGTTTTCCCGGTAATCCGTATTTGCA (site TCATAGTCTTG) , is the recorded recombinant UMI read abundance (log10) at or above 0.8?
Response line: 0.0

Prompt line: Hi team, for AGCCAAACATGGACCGGTTTTCCCGGTAATCCGTATTTGAA (site AGCCAAACTTT) , is the recorded recombinant UMI read abundance (log10) at or above 0.8?
Response line: 1.0

Prompt line: Hi team, for GTATGCCCATGGACCGGTTTTCCCGGTAATCCGTATTTGTA (site GTATGCTCTTA) , is the recorded recombinant UMI read abundance (log10) at or above 0.8?
Response line: 1.0

Prompt line: Hi team, for TACTGACCATGGACCGGTTTTCCCGGTAATCCGTATTTGGA (site TACTGACCTTC) , is the recorded recombinant UMI read abundance (log10) at or above 0.8?
Response line: 0.0

Prompt line: Hi team, for CTAGTGTCATGGACCGGTTTTCCCGGTAATCCGTATTTGGC (site CTAGTGTCTGC) , is the recorded recombinant UMI read abundance (log10) at or above 0.8?
Response line: 1.0

Prompt line: Hi team, for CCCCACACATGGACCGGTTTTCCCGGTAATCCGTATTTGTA (site CCCCAGACTTA) , is the recorded recombinant UMI read abundance (log10) at or above 0.8?
Response line: 0.0

Prompt line: Hi team, for CCTAATACATGGACCGGTTTTCCCGGTAATCCGTATTTGGT (site CCTAATACTAC) , is the recorded recombinant UMI read abundance (log10) at or above 0.8?
Response line: 0.0

Prompt line: Hi team, for GTTGTACCATGGACCGGTTTTCCCGGTAATCCGTATTTGGT (site GTTGTTCCTAC) , is the recorded recombinant UMI read abundance (log10) at or above 0.8?
Response line: 0.0

Prompt line: Hi team, for TGATGAGCATGGACCGGTTTTCCCGGTAATCCGTATTTGGG (site TTATGAGCTCC) , is the recorded recombinant UMI read abundance (log10) at or above 0.8?
Response line: 0.0

Prompt line: Hi team, for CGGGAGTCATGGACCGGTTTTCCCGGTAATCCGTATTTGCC (site GGGGAGTCTGG) , is the recorded recombinant UMI read abundance (log10) at or above 0.8?
Response line: 0.0

Prompt line: Hi team, for GCCGAACCATGGACCGGTTTTCCCGGTAATCCGTATTTGGG (site GCCGAACCTCC) , is the recorded recombinant UMI read abundance (log10) at or above 0.8?
Response line: 0.0

Prompt line: Hi team, for CCCTCGCCATGGACCGGTTTTCCCGGTAATCCGTATTTGCC (site CCCTGGCCTGG) , is the recorded recombinant UMI read abundance (log10) at or above 0.8?
Response line: 0.0

Prompt line: Hi team, for GTGCTACCATGGACCGGTTTTCCCGGTAATCCGTATTTGGG (site GTGCTACCTCC) , is the recorded recombinant UMI read abundance (log10) at or above 0.8?
Response line: 0.0

Prompt line: Hi team, for TCAATCTCATGGACCGGTTTTCCCGGTAATCCGTATTTGGT (site TCAATCTCTAC) , is the recorded recombinant UMI read abundance (log10) at or above 0.8?
Response line: 1.0

Prompt line: Hi team, for AGTTTCCCATGGACCGGTTTTCCCGGTAATCCGTATTTGTG (site AGCTTCCCTCA) , is the recorded recombinant UMI read abundance (log10) at or above 0.8?
Response line: 0.0

Prompt line: Hi team, for TAATGTCCATGGACCGGTTTTCCCGGTAATCCGTATTTGTA (site TAATGTCCTTA) , is the recorded recombinant UMI read abundance (log10) at or above 0.8?
Response line: 0.0

Where do these numbers come from? They come from the supplement of paper PMC11208160.
